system: LTB4 production in MC/9 cells; test: MC/9 HPLC assay, inhibition of LTB4 production; assay type: cell-based; conditions: Mus musculus, MC9, Table 2 column 4, no concentration in head (1 μM according to b732), read-out: % Inhibition LTB4
Measure: inhibition at 1 µM

Observe how each entry below is paired with its result.
Compound | Measure | Endpoint Result
CC(O)(CCc1ccc(Oc2nc3ccccc3o2)cc1)c1ccccc1 (stereo not drawn) | inhibition at 1 µM | > 90%
CCC(O)(CCc1ccc(Oc2nc3ccccc3s2)c(Cl)c1)C(F)(F)F (stereo not drawn) | inhibition at 1 µM | 10 to 30%
CC(O)(CCc1ccc(Oc2nc3ccccc3s2)cc1)C(F)(F)F (stereo not drawn) | inhibition at 1 µM | < 10%
CC(O)CCc1ccc(Oc2nc3ccccc3s2)cc1 (stereo not drawn) | inhibition at 1 µM | > 90%
CCC(=O)CCc1ccc(Oc2nc3ccccc3s2)c(F)c1 | inhibition at 1 µM | 50 to 70%
OC(c1ccc(Oc2nc3ccccc3s2)c(Cl)c1)C(F)(F)F (stereo not drawn) | inhibition at 1 µM | 10 to 30%

The measured inhibition at 1 µM associated with CCC(N)CCc1ccc(Oc2nc3ccccc3s2)c(OC)c1 (stereo not drawn) reads 30 to 50%

The measured inhibition at 1 µM associated with CCOc1cc(CCC(O)(CC)C(F)(F)F)ccc1Oc1nc2ccccc2s1 (stereo not drawn) reads 50 to 70%

The measured inhibition at 1 µM associated with CCC(O)(CCc1ccc(Oc2nc3ccc(S(C)(=O)=O)cc3s2)c(OC)c1)C(F)(F)F (stereo not drawn) reads 10 to 30%

Taken from patent US12686668B2.
